# System: RIV aptamer (DNA, aptamer) TAGGGAAGAGAAGGACATATGATGACTCACAACTGGACGAACGTACTTATCCCCCCCAATCACTAGTGAATT
# test_summary: square-wave voltammetry aptasensor
# test_context: K+ 0.01 M (KCl); [Fe(CN)6]3−/4−; concentration tested not stated
readout_name: binding

Consider the worked cases shown below.
| compound | binding |
| --- | --- |
| N=C(N)NCCC[C@H](N)C(=O)O | weak |
| NCC(=O)O | no |
| O=C(O)[C@@H]1CCCN1 | weak |
| N[C@@H](CS)C(=O)O | weak |

Shift focus to the following entry.
Value lookup for binding; key = OC[C@H]1OC(O)[C@H](O)[C@@H](O)[C@@H]1O (some centres unmarked)
no
